Recorded values, source patent US9938240B2.

Recorded CC2 (cytotoxic concentration) values for a group of compounds are listed next.
- System: human neuroblastoma MC-65 cells
- assay-explanation: cells
- test-context: MC-65, cultured without tetracycline, viability below 80%
Report as a plain number; the unit µM is understood.

# compound, CC2 (cytotoxic concentration) / µM
data = [
    ("C#CCN(C)C(c1c(O)c(=O)ccn1C)C(F)(F)F (stereo not shown)", 20),
    ("Cn1ccc(=O)c(O)c1CC(F)F", 40),
    ("Cc1c(Cl)c(=O)c(O)c(C(N(C)C)C(F)(F)F)n1C (stereo not shown)", 40),
]

Per the record, CN(C)Cc1cc(=O)c(O)c(CC(F)(F)F)n1C has CC2 (cytotoxic concentration) of 20

The reported CC2 (cytotoxic concentration) of the compound Cn1ccc(=O)c(O)c1C(C(F)F)N1CCCCC1 (stereo not shown) was 40

CC2 (cytotoxic concentration) in this record for Cc1c(O)c(=O)c(C(N2CCOCC2)C(F)(F)F)cn1C (stereo not shown) : 40

# CC2 (cytotoxic concentration) of Cc1c(O)c(=O)c(C(n2ccnc2)C(F)(F)F)cn1C (stereo not shown) = 40

---

- assay-explanation: Pharmacokinetics following oral administration to rats
- Assay type: in vivo, male Sprague Dawley rats
- test-context: rat, oral 50 mg/kg in 0.5% CMC
Listed next: entries and their corresponding CL.
Provide the reading as a plain figure in L/h/kg.

A selection of reference data follows.
# molecule, unit-label, CL
data = [
    ("Cc1[nH]cc(C(N2CCOCC2)C(F)(F)F)c(=O)c1O (stereo not shown) [Apo7433]", "L/h/kg", 3.76),
    ("O=c1ccn(CC(F)(F)F)c(CN2CCOCC2)c1O [Apo7323]", "L/h/kg", 1.99),
]

Documented CL of Cc1c(O)c(=O)c(C(N2CCOCC2)C(F)(F)F)cn1C (stereo not shown) [Apo7435] : 6.61

Per the record, Cn1ccc(=O)c(O)c1C(N1CCOCC1)C(F)(F)F (stereo not shown) [Apo7448] has CL of 3.12

---

- assay-explanation: Fe speciation plot (HySS)
- Assay type: physicochemical
- test-context: Fe:ligand 1:10, [Fe]=1×10^−6 M, [L]=1×10^−5 M
measured-attribute: % FeL3H3 (species 133) at pH 7.4 (%)
Write down the numeric answer in % and omit the unit.

# compound, % FeL3H3 (species 133) at pH 7.4 (%)
rows = [
    ("O=c1ccn(CC(F)(F)F)c(CN2CCOCC2)c1O", 0.0),
    ("CNC(c1cn(C)c(C)c(O)c1=O)C(F)(F)F (stereo not shown)", 0.0),
    ("Cc1c(O)c(=O)c(C(N2CCOCC2)C(F)(F)F)cn1C (stereo not shown)", 0.0),
]

# compound CN(C)Cc1c(O)c(=O)ccn1CC(F)(F)F ; its % FeL3H3 (species 133) at pH 7.4 = 1.2

---

- Test system: human neuroblastoma MC-65 cells
- assay-explanation: cells
- test-context: Homo sapiens, MC65, 48 h, read-out: TH (threshold protective concentration)
measured-attribute: minimal effective concentration (µM)
Express the result in µM but write the number alone.

# compound, minimal effective concentration (µM)
measured = [
    ("Cc1cc(=O)c(O)c(CN2CCCCC2)n1CC(F)(F)F [Apo7071]", 1),
    ("CN(C)C(c1c(O)c(=O)c(Cl)cn1C)C(F)(F)F (centres unmarked) [Apo7060]", 1),
]

Given the compound Cn1ccc(=O)c(O)c1C(N1CCOCC1)C(F)(F)F (centres unmarked) [Apo7448] and test system human neuroblastoma MC-65 cells, the measured minimal effective concentration is 1

// minimal effective concentration (human neuroblastoma MC-65 cells) for Cc1cc(=O)c(O)c(C(N2CCN(Cc3ccccc3)CC2)C(F)(F)F)n1C (centres unmarked) [Apo7334] = 1

Item: Cc1c(O)c(=O)c(C(N(C)C)C(F)(F)F)cn1C (centres unmarked) [Apo7053] | System: human neuroblastoma MC-65 cells | minimal effective concentration: 0.1

---

- assay-explanation: Distribution coefficient determination, D7.4 (1-octanol / K2HPO4 buffer)
- Format: physicochemical
- test-context: 1-octanol / K2HPO4 buffer 50 mM pH 7.4
- Procedure: K2HPO4 buffer (50 mM, pH=7.4) and 1-octanol were used as the aqueous phase and the organic phase, respectively. The K2HPO4 buffer and 1-octanol were mixed, and pre-saturated with each other before use. […] One mL of this aqueous solution was pipetted out into another 10-mL test-tube and mixed with 1 mL of 1-octanol. […] A small amount of the lower aqueous layer was carefully pipetted out and analyzed by HPLC to obtain the peak height (HF). […]
Label 1.0 when D7.4 is at or above 3; anything below gets 0.0.

Please review the entries below; each comes with its answer.
# compound, assigned-class
rows = [
    ("CCc1c(O)c(=O)ccn1CC(F)(F)F [Apo7030]", 1.0),
    ("Cn1cc(Cl)c(=O)c(O)c1CC(F)(F)F [Apo7066]", 1.0),
]

Input: Entry Cc1cc(=O)c(O)c(CN(C)C)n1CC(F)F [Apo7083] : is its D7.4 no less than 3?
Output: 0.0

Input: I'd appreciate it if you could say whether CN(C)Cc1c(O)c(=O)ccn1CC(F)(F)F [Apo7067] has D7.4 at least equal to 3.
Output: 0.0

Input: Test whether the compound Cc1cc(=O)c(O)c(CN(C)C)n1CC(F)(F)F [Apo7065] records D7.4 of 3 or higher.
Output: 1.0

Input: Is D7.4 for Cc1c(O)c(=O)ccn1CC(F)(F)F [Apo6995] at or above 3?
Output: 0.0

Input: Please check the record Cc1c(O)c(=O)ccn1C [Deferiprone, 3-hydroxy-1,2-dimethylpyridin-4(1H)-one, reference compound] and state if its D7.4 is at or above 3.
Output: 0.0

Input: Quick check, D7.4 >= 3? Cc1c(Cl)c(=O)c(O)c(CC(F)(F)F)n1C [Apo7040]
Output: 1.0

Input: Please indicate if the recorded D7.4 for CN(C)C(c1c(O)c(=O)c(Cl)cn1C)C(F)(F)F (stereo not shown) [Apo7060] meets or exceeds 3.
Output: 1.0

Input: # bool: D7.4 of Cc1c(O)c(=O)ccn1CC(F)F [Apo7069] >= 3
Output: 0.0

---

- assay-explanation: pKa determination by spectrophotometric titration
- Format: physicochemical
- test-context: cumulative ligand protonation, Example 53
measured-attribute: Logβ013
Respond numerically, and do not add a unit to the figure.

# molecule, Logβ013
measured = [
    ("Cc1c(O)c(=O)c(C(N2CCOCC2)C(F)(F)F)cn1C (stereo not shown)", 12.3),
    ("CNC(c1cn(C)c(C)c(O)c1=O)C(F)(F)F (stereo not shown)", 15.1),
    ("O=c1ccn(CC(F)(F)F)c(CN2CCOCC2)c1O", 14.2),
]

Moving on to the next molecule.
The value of Logβ013 measured for the molecule CN(C)Cc1c(O)c(=O)ccn1CC(F)(F)F turned out to be 16.5

---

- System: human neuroblastoma MC-65 cells
- assay-explanation: cells
- test-context: MC-65, cultured without tetracycline, viability below 80%
measured-attribute: CC2 (cytotoxic concentration)
The reply must contain the numeric value and, after it, the unit.

Answered cases to consult:
# compound, CC2 (cytotoxic concentration)
rows = [
    ("CN(C)Cc1cc(=O)c(O)c(C(O)C(F)(F)F)n1C (centres unmarked)", "40 µM"),
    ("Cc1c(O)c(=O)c(C(N(C)C)C(F)(F)F)cn1C (centres unmarked)", "20 µM"),
    ("Cc1cc(=O)c(O)c(CN(C)C)n1CC(F)F", "40 µM"),
]

For the compound Cn1ccc(=O)c(O)c1C(C(F)F)N1CCN(c2ccccn2)CC1 (centres unmarked) , the measured CC2 (cytotoxic concentration) on human neuroblastoma MC-65 cells was 20 µM

---

- Tested on: human neuroblastoma MC-65 cells
- assay-explanation: cells
- test-context: MC-65, cultured without tetracycline, viability below 80%
- Method: In this assay, human neuroblastoma cells (MC-65 cells) are genetically engineered to conditionally express amyloid β peptide (Aβ). […] Protective effect of compounds against edogenously produced amyloid beta (Aβ) was assessed in human neuroblastoma MC-65 cells. […] Transfected human neuroblastoma cells (MC-65) were cultured in DMEM (ATCC) supplemented with non-essential amino acids and 10% FBS (VWR) in the presence of TET (1 μg/mL). […] Cell viability was then measured using the MTT method. […]
measured-attribute: CC2 (cytotoxic concentration)
I'd appreciate it if you included the unit after the number.

# compound, CC2 (cytotoxic concentration)
records = [
    ("CN(C)Cc1c(O)c(=O)ccn1CC(F)(F)F", "80 µM"),
    ("CN(C)c1c(O)c(=O)cc(CC(F)(F)F)n1C", "80 µM"),
    ("CCc1c(O)c(=O)ccn1CC(F)(F)F", "40 µM"),
    ("Cc1cc(=O)c(O)c(C(N2CCN(c3ccccn3)CC2)C(F)(F)F)n1C (stereo not shown)", "20 µM"),
    ("Cc1c(O)c(=O)ccn1CC(F)F", "80 µM"),
]

Reported CC2 (cytotoxic concentration) for Cn1cc(Cl)c(=O)c(O)c1C(N1CCCCC1)C(F)(F)F (stereo not shown) was 20 µM

What the record says about CN(C)C(c1c(O)c(=O)ccn1C)C(F)(F)F (stereo not shown) : CC2 (cytotoxic concentration) is 80 µM
